B1: NET1 (parent)
chain: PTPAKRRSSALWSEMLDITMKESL

# Variants of: B1
# protocol: protein stability index of a GFP-peptide fusion (GPS, HEK-293T) (PSI 1-6); higher = more stable;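 further: lentivirally expressed fusions sorted by FACS into six bins by GFP to DsRed ratio, PSI derived from sequencing read proportions per bin multiplied by bin number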
# protocol_conditions: c terminus: a fixed tail appended
Quick list: protein stability index per entry.

monomer_sequence	measured_attribute	reading
PTPAKRRSSALWSVMLDITMKESL	protein stability index	1.25
PTPAKRRSSALWSYMLDITMKESL	protein stability index	2.2

Query: protein stability index; subject: PSPAKRRSSALWSEMLDITMKESL
1.62

Query: protein stability index; subject: PTPAKRRSSALWSEMLDIPMKESL
1.7
